Numbers sourced from ChEMBL document CHEMBL3885861.

Below: a set of entries, each annotated with reported MCHC.
- Species: Rattus norvegicus
- protocol.notes: Open TG-GATES - Regimen: Single
- Type: toxicity, organism-based, Sprague-Dawley
- Set-up: regimen Single, gender Male, age 6 weeks
- conditions.used: in vivo, po, 300 mg/kg, 3 h, tissue Blood, route gavage, dose level Middle
Numbers only here, please. The scale is %.

Below: 4 compounds and their reported MCHC.
- compound: "O=C(O)c1cc(/N=N/c2ccc(S(=O)(=O)Nc3ccccn3)cc2)ccc1O"
  units.of.measure: "%"
  result.value: 34
- compound: "O=C(O)c1cn(C2CC2)c2cc(N3CCNCC3)c(F)cc2c1=O"
  units.of.measure: "%"
  result.value: 33.4
- compound: "CCc1cc(C(N)=S)ccn1 [ETHIONAMIDE]"
  units.of.measure: "%"
  result.value: 33.7
- compound: "C[C@H](CS)C(=O)N1CCC[C@H]1C(=O)O"
  units.of.measure: "%"
  result.value: 33.2

# context switch: different compound, same MCHC
Task: For the compound `Clc1ccccc1CN1CCc2sccc2C1` , what MCHC is on record?
Output: 35.3
